Reported ΔTm Run 1 values for the following compounds.
Biological target: LmxCLK1 (Leishmania mexicana, UniProt E9AMP2)
Sequence (E9AMP2 1-422): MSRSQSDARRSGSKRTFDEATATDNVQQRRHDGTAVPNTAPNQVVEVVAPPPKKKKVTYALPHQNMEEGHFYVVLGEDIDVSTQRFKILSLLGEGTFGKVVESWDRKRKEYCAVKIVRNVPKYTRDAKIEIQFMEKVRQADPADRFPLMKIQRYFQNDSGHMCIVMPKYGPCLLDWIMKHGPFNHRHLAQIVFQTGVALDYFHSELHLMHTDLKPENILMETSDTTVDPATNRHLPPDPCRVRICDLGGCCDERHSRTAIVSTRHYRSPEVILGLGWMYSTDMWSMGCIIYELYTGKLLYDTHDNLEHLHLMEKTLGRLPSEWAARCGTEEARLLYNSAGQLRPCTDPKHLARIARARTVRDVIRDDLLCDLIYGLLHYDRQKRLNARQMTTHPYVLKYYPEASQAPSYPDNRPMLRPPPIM
Experiment: biochemical
Assay type: binding
Settings: DSF, 10 µM compound, 2 µM LmxCLK1, Run 1
Your answer is read as °C, so omit the unit and give the number.

>>> result_number("CC(=O)c1c(C)c2cnc(Nc3ccc(N4CCNCC4)cn3)nc2n(C2CCCC2)c1=O.Cl [Palbociclib (PD-0332991) HCl]")
0.6
>>> result_number("CN1CC[C@H](c2c(O)cc(O)c3c(=O)cc(-c4ccccc4Cl)oc23)[C@H](O)C1.Cl [Flavopiridol HCl]")
0.1

The measured ΔTm Run 1 that COc1cc2nccc(Oc3ccc(NC(=O)C4(C(=O)Nc5ccc(F)cc5)CC4)cc3)c2cc1OC [Cabozantinib (XL184)] showed for LmxCLK1 (Leishmania mexicana, UniProt E9AMP2) is 0.3

The measured ΔTm Run 1 that Oc1ccc(-c2nc(-c3ccc(F)cc3)c(-c3ccncc3)[nH]2)cc1 [SB202190 (FHPI)] showed for LmxCLK1 (Leishmania mexicana, UniProt E9AMP2) is 0.2

---

Reported ΔTm Average values for the following compounds.
target: LmxCLK1 (Leishmania mexicana); experiment: biochemical; assay type: binding
Your answer is read as °C, so omit the unit and give the number.

>>> result_number("O=C(Cc1ccc(-c2ccc(OCCN3CCOCC3)cc2)cn1)NCc1ccccc1 [KX2-391]")
0.1

Lookup result for Cn1cc(-c2cnn3c(N)c(Br)c([C@@H]4CCCNC4)nc23)cn1 [MK-8776 (SCH 900776)] ; measured ΔTm Average: 0.3

Lookup result for Cc1ccc([N+](=O)[O-])cc1S(=O)(=O)N(C)/N=C/c1cnc2ccc(Br)cn12 [PIK-75] ; measured ΔTm Average: 0.3

---

Reported Target occupancy Run 1 values for the following molecules.
target: NLuc::LmxCLK1 (Leishmania mexicana); experiment: cell-based; format: cell-based; settings: 10 µM compound, tracer SV366, promastigotes
Your answer is read as %, so omit the unit and give the number.

Some entries whose results are on file:
>>> result_number("COc1cc(N2CCC(N)CC2)ccc1Nc1ncc(Cl)c(-c2c[nH]c3ccccc23)n1 [AZD3463]")
8.0
>>> result_number("COc1cc2ncnc(Nc3ccc(F)c(Cl)c3)c2cc1NC(=O)/C=C/CN1CCCCC1 [Dacomitinib (PF299804)]")
1.4
>>> result_number("CCN1/C(=C/C(C)=O)Sc2ccc(OC)cc21 [TG003]")
10.1

Lookup result for c1cncc(CN2CCC(n3ncc4c(N5CCOCC5)nc(-c5ccc6[nH]ccc6c5)nc43)CC2)c1 [WAY-600] ; measured Target occupancy Run 1: 4.0

Lookup result for COc1cc(Nc2ncc(F)c(Nc3ccc4c(n3)N(COP(=O)(O)O)C(=O)C(C)(C)O4)n2)cc(OC)c1OC [Fostamatinib (R788)] ; measured Target occupancy Run 1: 0.9

Lookup result for NC(=O)c1cccc(-c2cc(Nc3ccc(OC(F)(F)F)cc3)ncn2)c1 [GNF-2] ; measured Target occupancy Run 1: -8.5

Lookup result for Cn1cc(C2=C(c3cn(C4CCN(Cc5ccccn5)CC4)c4ccccc34)C(=O)NC2=O)c2ccccc21 [Enzastaurin (LY317615)] ; measured Target occupancy Run 1: 2.6

Lookup result for Cl.O=S(=O)(c1cccc2cnccc12)N1CCCNCC1 [Fasudil (HA-1077) HCl] ; measured Target occupancy Run 1: 6.9

Lookup result for O=C1Nc2ccc(I)cc2/C1=C/c1cc(Br)c(O)c(Br)c1 [GW5074] ; measured Target occupancy Run 1: -7.5

Lookup result for O=C(NOCC1CC1)c1ccc(F)c(F)c1Nc1ccc(I)cc1Cl [PD184352 (CI-1040)] ; measured Target occupancy Run 1: -2.3

Lookup result for N#C/C(=C/c1ccc(O)c(O)c1)C(=O)NCc1ccccc1 [AG-490 (Tyrphostin B42)] ; measured Target occupancy Run 1: -25.0
